Values compiled from ChEMBL document CHEMBL1177857.

test: Induction of NQO1 activity in mouse Hepa-1c1c7 cells at 5 uM after 48 hrs relative to control
measured.parameter: fold change (FC)

{"columns": ["entry.smiles", "observed.measurement"],
 "data": [
  ["O=C1/C(=C/c2ccccc2)Oc2cc(O)cc(O)c21", 1.39],
  ["COc1cc(OC)c2c(c1)O/C(=C\\c1cccc(O)c1O)C2=O", 2.53],
  ["COc1ccccc1/C=C1\\Oc2cc(O)cc(O)c2C1=O", 1.48],
  ["O=C1Oc2ccc(O)cc2/C1=C/c1cccc(O)c1", 1.64],
  ["O=C1Oc2ccc(O)cc2/C1=C/c1ccccc1O", 2.43]
]}

* * *

assay: Induction of NQO1 activity in mouse Hepa-1c1c7 cells at 5 uM after 48 hrs relative to control
Classify: Condition met when fold change (FC) is strictly less than 2; Condition not met when fold change (FC) is not.

{"columns": ["compound", "group"],
 "data": [
  ["COc1cc(OC)c2c(c1)OC(Cc1ccccc1)C2=O (stereo not given)", "Condition met"],
  ["COc1cccc(/C=C2\\Oc3cc(O)cc(O)c3C2=O)c1", "Condition not met"],
  ["O=C1/C(=C/c2cccc(O)c2)Oc2cc(O)cc(O)c21", "Condition met"],
  ["COc1ccccc1/C=C1\\Oc2cc(O)ccc2C1=O", "Condition met"],
  ["O=C1/C(=C/c2ccccc2O)Oc2ccccc21", "Condition met"]
]}
